Record form. Attribute: growth inhibition (GI). Fill in for each entry.
# Tested on: OVCAR-4
# assay-comment: Growth inhibition of human OVCAR4 cells after 48 hrs by cell counting analysis
# Format: functional
# run-conditions: at 10 µM

In: Give its growth inhibition (GI) value. Item: CN1CCN(CCC(=O)Nc2nc(-c3ccc(Cl)cc3)cs2)CC1
Out: <10%

In: Repeat for the following molecule: O=C(CN1CCN(c2ccccc2)CC1)Nc1nc(-c2ccc(Cl)cc2)cs1
Out: <10%

In: Repeat for the following molecule: O=C(CN1CCN(c2ccccc2)CC1)Nc1nc(-c2ccc(Br)cc2)cs1
Out: <10%

In: Repeat for the following molecule: Cc1ccc(-c2csc(NC(=O)CCN3CCN(c4ccccc4)CC3)n2)cc1
Out: 11.1%

In: Repeat for the following molecule: Cn1cc(NC(=O)c2cc(NC(=O)CNC(=N)N)cn2C)cc1C(=O)NCCC(=N)N [NETROPSIN]
Out: <10%

In: Repeat for the following molecule: Cc1ccc(-c2csc(NC(=O)CCCl)n2)cc1
Out: 81.5%

In: Repeat for the following molecule: CN1CCN(CCC(=O)Nc2nc(-c3ccc(Br)cc3)cs2)CC1
Out: <10%

In: Repeat for the following molecule: O=C(CCCl)Nc1nc(-c2ccc(Cl)cc2)cs1
Out: 16.4%

In: Repeat for the following molecule: Cc1ccc(-c2csc(NC(=O)CN3CCN(c4ccccc4)CC3)n2)cc1
Out: 28.1%

In: Repeat for the following molecule: O=C(CCN1CCN(c2ccccc2)CC1)Nc1nc(-c2ccc(Cl)cc2)cs1
Out: <10%

In: Repeat for the following molecule: Cc1ccc(-c2csc(NC(=O)CN3CCN(C)CC3)n2)cc1
Out: <10%

Hello, the source for this data is ChEMBL document CHEMBL2150993, in case you need it.
